molecular target: hROMK (hKir1.1) (Homo sapiens, UniProt P48048); construct: expressed in transfected cells; assay: Thallium Flux Assay; type: cell-based; conditions: HEK293 cells stably expressing hROMK (hKir1.1), FLIPR-Tetra; read-out: Thallium Flux IC50
IC50 reference
The reply should be a number in nM, with the unit left off.

See these solved cases before continuing.
1. Cc1c([C@@H]2CN3CCN(C(=O)Cc4ccc(-n5cnnn5)nc4)C[C@H]3CO2)ccc(Cl)c1C#N | 150
2. COc1cc([C@@H]2CN3CCN(C(=O)Cc4ccc(-n5cnnn5)nc4)C[C@@H]3CO2)cc(F)c1C#N | 170
3. COc1c([C@@H]2CN3CCN(C(=O)Cc4ccc(-n5cnnn5)nc4)C[C@H]3CO2)ccc(F)c1C#N | 140

Query: IC50; subject: "Cc1nc(CC(=O)N2CCN3C[C@H](c4ccc(F)c(C#N)c4C)OC[C@H]3C2)ccc1-n1cnnn1"
200

* * *

Biological target: hROMK (hKir1.1) (Homo sapiens, UniProt P48048)
Construct: expressed in transfected cells
Sequence (P48048 1-391): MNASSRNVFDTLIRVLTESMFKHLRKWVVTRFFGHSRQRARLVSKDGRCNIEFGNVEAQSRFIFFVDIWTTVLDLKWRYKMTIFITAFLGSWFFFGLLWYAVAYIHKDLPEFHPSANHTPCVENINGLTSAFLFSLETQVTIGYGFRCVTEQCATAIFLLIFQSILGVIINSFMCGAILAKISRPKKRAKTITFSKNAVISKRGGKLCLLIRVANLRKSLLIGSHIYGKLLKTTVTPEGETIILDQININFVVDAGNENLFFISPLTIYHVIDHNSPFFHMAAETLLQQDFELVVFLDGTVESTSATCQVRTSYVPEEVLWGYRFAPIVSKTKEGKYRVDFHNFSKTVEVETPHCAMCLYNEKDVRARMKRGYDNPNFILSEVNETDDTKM
Assay: Thallium Flux Assay
Format: cell-based
Settings: HEK293 cells stably expressing hROMK (hKir1.1), FLIPR-Tetra; read-out: Thallium Flux IC50
IC50 reference
The reply should be a number in nM, with the unit left off.

See these solved cases before continuing.
1) Cc1c([C@H]2CN3CCN(C(=O)Cc4cnc(-n5cnnn5)c(F)c4)C[C@H]3CO2)ccc(F)c1C#N [Example 149] | 130
2) N#Cc1c(F)cc([C@@H]2CN3CCN(C(=O)Cc4ccc(-n5cnnn5)nc4)C[C@H]3CO2)cc1F [Example 110] | 370
3) Cc1cc(CC(=O)N2CCN3C[C@@H](c4ccc(F)c(C#N)c4C)OC[C@H]3C2)ncc1-n1cnnn1 [Example 129] | 250

Now for another entry.
Query: IC50; subject: Cc1cc2c(cc1[C@H]1CN3CCN(C(=O)Cc4ccc(-n5cnnn5)nc4)C[C@H]3CO1)COC2=O [Example 73]
230

* * *

target: hROMK (hKir1.1) (Homo sapiens); construct: expressed in transfected cells; test: Thallium Flux Assay; format: cell-based; details: read-out: Thallium Flux IC50
EXPERIMENTAL_READOUT: IC50 (nM)
The reply should be a number in nM, with the unit left off.

State its IC50 on hROMK (hKir1.1) (Homo sapiens): "O=C1OCCc2cc([C@@H]3CN4CCN(C(=O)Cc5ccc(-n6cnnn6)nc5)C[C@H]4CO3)ccc21"
80

* * *

target: hROMK (hKir1.1) (Homo sapiens); construct: expressed in transfected cells; assay: Thallium Flux Assay; type: cell-based; settings: HEK293 cells stably expressing hROMK (hKir1.1), FLIPR-Tetra; read-out: Thallium Flux IC50
pIC50 reference
pIC50 is defined as minus the log10 of a concentration measured in mol/L.

See these solved cases before continuing.
1) COc1cc(-n2cnnn2)cnc1CC(=O)N1CCN2C[C@@H](c3ccc(F)c(C#N)c3C)OC[C@H]2C1 | 6.48
2) Cc1c([C@H]2CN3CCN(C(=O)Cc4cnc(-n5cnnn5)nc4)C[C@H]3CO2)ccc2c1COC2=O | 6.85
3) Cc1nc(-n2cnnn2)nc(C)c1CC(=O)N1CCN2C[C@@H](c3ccc(F)c(C#N)c3C)OC[C@H]2C1 | 6.70
4) N#Cc1c(F)cc([C@H]2CN3CCN(C(=O)Cc4ccc(-n5cnnn5)nc4)C[C@H]3CO2)cc1F | 6.72
5) O=C1OCc2c1ccc([C@H]1CN3CCN(C(=O)Cc4ccc(-n5cnnn5)nc4)C[C@H]3CO1)c2Br | 6.82
6) Cc1c([C@@H]2CN3CCN(C(=O)Nc4ccc(-n5cnnn5)cn4)C[C@@H]3CO2)ccc(F)c1C#N | 6.60

Now for another entry.
State its pIC50 on hROMK (hKir1.1) (Homo sapiens): Cc1c([C@H]2CN3CCN(C(=O)Cc4ccc(-n5cnnn5)nc4)C[C@H]3CCO2)ccc(F)c1C#N (single isomer, unassigned)
6.74

* * *

target: Kir1.1 (ROMK1) (Homo sapiens); experiment: Electrophysiology Assay (whole cell voltage clamp, IonWorks Quattro)
EXPERIMENTAL_READOUT: pIC50
pIC50 is defined as minus the log10 of a concentration measured in mol/L.

See these solved cases before continuing.
1) COc1cc(F)c([C@@H]2CN3CCN(C(=O)Cc4ccc(-n5cnnn5)nc4)C[C@H]3CO2)cc1C#N | 6.72
2) Cc1c([C@H]2CN3CCN(C(=O)Cc4ccc(-n5cnnn5)nc4)C[C@@H]3CO2)ccc(F)c1C#N | 7.15

State its pIC50 on Kir1.1 (ROMK1) (Homo sapiens): "N#Cc1cc([C@@H]2CN3CCN(C(=O)Cc4ccc(-n5cnnn5)nc4)C[C@H]3CO2)ccc1F"
7.70

* * *

Molecular target: Kir1.1 (ROMK1) (Homo sapiens)
Sequence (P48048 1-391): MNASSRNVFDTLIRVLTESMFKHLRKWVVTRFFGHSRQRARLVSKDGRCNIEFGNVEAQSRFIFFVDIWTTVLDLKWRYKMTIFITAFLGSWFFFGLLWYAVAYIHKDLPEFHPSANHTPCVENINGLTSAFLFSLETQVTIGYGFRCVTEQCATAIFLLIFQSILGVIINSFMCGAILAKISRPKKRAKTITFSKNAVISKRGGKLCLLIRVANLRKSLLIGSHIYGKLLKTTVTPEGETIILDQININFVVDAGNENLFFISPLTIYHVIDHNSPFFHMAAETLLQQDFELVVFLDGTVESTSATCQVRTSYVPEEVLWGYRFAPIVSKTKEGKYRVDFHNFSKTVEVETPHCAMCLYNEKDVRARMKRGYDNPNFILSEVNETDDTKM
Test: Electrophysiology Assay (whole cell voltage clamp, IonWorks Quattro)
EXPERIMENTAL_READOUT: IC50 (nM)
The reply should be a number in nM, with the unit left off.

See these solved cases before continuing.
1. COc1ccc([C@@H]2CN3CCN(C(=O)Cc4ccc(-n5cnnn5)nc4)C[C@H]3CO2)c(C)c1C#N [Example 50] | 130
2. Cc1c([C@@H]2CN3CCN(C(=O)Cc4ccc(-n5cnnn5)cn4)C[C@H]3CO2)ccc(F)c1C#N [Example 2] | 70
3. Cc1c([C@H]2CN3CCN(C(=O)Cc4cnc(-n5cnnn5)nc4)C[C@H]3CO2)ccc(F)c1C#N [Example 6] | 40

Now for another entry.
Query: IC50; subject: COc1c([C@H]2CN3CCN(C(=O)Cc4ccc(-n5cnnn5)nc4)C[C@H]3CO2)ccc(F)c1C#N [Example 61]
70

* * *

target: hROMK (hKir1.1) (Homo sapiens); construct: expressed in transfected cells; test: Thallium Flux Assay; format: cell-based; settings: Thallium Flux IC50
EXPERIMENTAL_READOUT: IC50 (µM)
The reply should be a number in µM, with the unit left off.

See these solved cases before continuing.
1) N#Cc1c(F)cc([C@@H]2CN3CCN(C(=O)Cc4cnc(-n5cnnn5)nc4)C[C@@H]3CO2)cc1F | 0.27
2) C[C@@H]1Cc2cc([C@@H]3CN4CCN(C(=O)Cc5cnc(-n6cnnn6)nc5)C[C@H]4CO3)ccc2C(=O)O1 | 0.16

Now for another entry.
Query: IC50; subject: "Cc1cc(CC(=O)N2CCN3C[C@H](c4ccc(F)c(C#N)c4C)OC[C@@H]3C2)ncc1-n1cnnn1"
0.19

* * *

target: hROMK (hKir1.1) (Homo sapiens, UniProt P48048); construct: expressed in transfected cells; experiment: Thallium Flux Assay; type: cell-based; settings: HEK293 cells stably expressing hROMK (hKir1.1), FLIPR-Tetra; read-out: Thallium Flux IC50
IC50 reference

See these solved cases before continuing.
1) COc1ccc([C@@H]2CN3CCN(C(=O)Cc4ccc(-n5cnnn5)nc4)C[C@H]3CO2)c(C)c1C#N [Example 50] | 80 nM
2) N#Cc1c(F)ccc([C@H]2CN3CCN(C(=O)Cc4cnc(-n5cnnn5)nc4)C[C@@H]3CO2)c1Cl [Example 126] | 140 nM

Query: IC50; subject: Cc1c([C@@H]2CN3CCN(C(=O)Cc4cccc(-n5cnnn5)n4)C[C@H]3CO2)ccc(F)c1C#N [Example 98]
560 nM

Query: IC50; subject: O=C(Cc1ccc(-n2cnnn2)cn1)N1CCN2C[C@@H](c3ccc4nonc4c3)OC[C@@H]2C1 [Example 178]
350 nM

Query: IC50; subject: O=C(Cc1cnc(-n2cnnn2)nc1)N1CCN2C[C@@H](c3ccc4nonc4c3)OC[C@@H]2C1 [Example 175]
530 nM

Query: IC50; subject: N#Cc1cc([C@@H]2CN3CCN(C(=O)Cc4ccc(-n5cnnn5)cn4)C[C@H]3CO2)c(F)cc1F [Example 82]
340 nM

Query: IC50; subject: COc1cc([C@@H]2CN3CCN(C(=O)Cc4ccc(-n5cnnn5)nc4)C[C@@H]3CO2)ccc1C#N [Example 40]
70 nM

Hey, just so you know, these numbers are from patent EP2790511B1.
